# targetOrTestSystem: Cathepsin B (Homo sapiens, UniProt P07858)
# methodDescription: Inhibition of human recombinant cathepsin B
# Met = IC50 below 60 nM (exclusive); Not met = IC50 at/above 60 nM

compound: CCCC[C@H](NC(=O)O[C@H](Cn1ccc(-c2cccnc2)n1)C(C)(C)C)C(=O)CNS(=O)(=O)c1ccccn1
classAssignment: Not met
//
compound: CCCC[C@H](NC(=O)O[C@H](Cn1ccc(-c2ccc(C(F)(F)F)cc2)n1)C(C)(C)C)C(=O)CNc1cccc(F)n1
classAssignment: Not met
//
compound: CCCC[C@H](NC(=O)O[C@H](Cn1ccc(-c2ccc(C(F)(F)F)cc2)n1)C(C)(C)C)C(=O)C(=O)Nc1ccn[nH]1
classAssignment: Met
//
compound: CCCC[C@H](NC(=O)O[C@H](Cn1cnc(-c2ccc(C(F)(F)F)cc2)c1)C(C)(C)C)C(=O)CNS(=O)(=O)c1ccccn1
classAssignment: Not met
//
compound: CCCC[C@H](NC(=O)O[C@H](Cn1cc(-c2ccc(C(F)(F)F)cc2)cn1)C(C)(C)C)C(=O)CNS(=O)(=O)c1ccccn1
classAssignment: Not met
//
compound: CCCC[C@H](NC(=O)O[C@H](Cn1ccc(-c2ccncc2)n1)C(C)(C)C)C(=O)CNS(=O)(=O)c1ccccn1
classAssignment: Met

* * *

# targetOrTestSystem: Cathepsin K (Homo sapiens)
# Sequence (P43235 whole entry): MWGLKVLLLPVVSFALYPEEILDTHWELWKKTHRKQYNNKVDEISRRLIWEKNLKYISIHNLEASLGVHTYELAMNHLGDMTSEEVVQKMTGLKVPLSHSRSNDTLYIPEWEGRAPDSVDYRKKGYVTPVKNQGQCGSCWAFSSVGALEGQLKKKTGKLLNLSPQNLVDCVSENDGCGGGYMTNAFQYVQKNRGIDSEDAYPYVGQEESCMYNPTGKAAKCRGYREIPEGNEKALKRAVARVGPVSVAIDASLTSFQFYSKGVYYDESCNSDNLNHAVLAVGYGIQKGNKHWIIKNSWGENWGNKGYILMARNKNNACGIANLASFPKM
# methodDescription: Inhibition of human recombinant cathepsin K
Known IC50 of a selection of molecules
testReadout: IC50 (nM)

compound: CCCC[C@H](NC(=O)O[C@H](Cn1ccc(-c2cccnc2)n1)C(C)(C)C)C(=O)CNS(=O)(=O)c1ccccn1
reportedMeasurement: 5.5
--
compound: C[C@H](NC(=O)O[C@H](Cn1ccc(-c2ccc(C(F)(F)F)cc2)n1)C(C)(C)C)C(=O)CNS(=O)(=O)c1ccccn1
reportedMeasurement: 18
--
compound: CCCC[C@H](NC(=O)O[C@H](Cn1cnc(-c2ccc(C(F)(F)F)cc2)c1)C(C)(C)C)C(=O)CNS(=O)(=O)c1ccccn1
reportedMeasurement: 6.4
--
compound: CCCC[C@H](NC(=O)O[C@H](Cn1ccc(-c2ccc(C(F)(F)F)cc2)n1)C(C)(C)C)C(=O)CNS(=O)(=O)c1ccccn1
reportedMeasurement: 4

* * *

Known log10 of IC50 of a selection of compounds
# targetOrTestSystem: Cathepsin S (Homo sapiens, UniProt P25774)
# Sequence (P25774 whole entry): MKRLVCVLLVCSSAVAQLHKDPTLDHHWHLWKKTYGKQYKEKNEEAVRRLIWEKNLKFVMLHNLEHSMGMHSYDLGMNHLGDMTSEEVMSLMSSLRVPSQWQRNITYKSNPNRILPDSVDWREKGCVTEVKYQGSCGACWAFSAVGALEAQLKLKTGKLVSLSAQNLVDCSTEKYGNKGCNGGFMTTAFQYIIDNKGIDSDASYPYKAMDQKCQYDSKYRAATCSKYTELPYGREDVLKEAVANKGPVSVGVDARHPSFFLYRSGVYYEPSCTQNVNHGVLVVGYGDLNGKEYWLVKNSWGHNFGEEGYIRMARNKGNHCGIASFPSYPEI
# methodDescription: Inhibition of human recombinant cathepsin S
testReadout: log10 of IC50 (log10 of the value in nM)

compound: CCCC[C@H](NC(=O)O[C@H](Cn1cc(-c2ccc(C(F)(F)F)cc2)cn1)C(C)(C)C)C(=O)CNS(=O)(=O)c1ccccn1
targetOrTestSystem: Cathepsin S (Homo sapiens, UniProt P25774)
log10 of IC50: 1.41
--
compound: C[C@H](NC(=O)O[C@H](Cn1ccc(-c2ccc(C(F)(F)F)cc2)n1)C(C)(C)C)C(=O)CNS(=O)(=O)c1ccccn1
targetOrTestSystem: Cathepsin S (Homo sapiens, UniProt P25774)
log10 of IC50: 1.81
--
compound: CC(C)C[C@H](NC(=O)c1cc2ccccc2o1)C(=O)N[C@@H](C)C(=O)CNS(=O)(=O)c1ccccn1
targetOrTestSystem: Cathepsin S (Homo sapiens, UniProt P25774)
log10 of IC50: 1.30
--
compound: C[C@H](NC(=O)O[C@H](Cn1cnc2cc(Cl)c(Cl)cc21)C(C)(C)C)C(=O)CNS(=O)(=O)c1ccccn1
targetOrTestSystem: Cathepsin S (Homo sapiens, UniProt P25774)
log10 of IC50: 0.90
--
compound: CCCC[C@H](NC(=O)O[C@H](Cn1ccc(-c2ccc(C(F)(F)F)cc2)n1)C(C)(C)C)C(=O)C(=O)Nc1ccn[nH]1
targetOrTestSystem: Cathepsin S (Homo sapiens, UniProt P25774)
log10 of IC50: -0.68
--
compound: CCCC[C@H](NC(=O)O[C@H](Cn1ccc(-c2cccnc2)n1)C(C)(C)C)C(=O)CNS(=O)(=O)c1ccccn1
targetOrTestSystem: Cathepsin S (Homo sapiens, UniProt P25774)
log10 of IC50: 1.18
--
compound: CCCC[C@H](NC(=O)O[C@H](Cn1ccc(-c2ccc(C(F)(F)F)cc2)n1)C(C)(C)C)C(=O)CNc1cccc(F)n1
targetOrTestSystem: Cathepsin S (Homo sapiens, UniProt P25774)
log10 of IC50: 1.28

Ref: ChEMBL document CHEMBL1146330
